Reference source for all entries: ChEMBL document CHEMBL5512688

Assay: Half life in ICR mouse at 60 mg/kg, IG measured upto 24 hrs by LC-MS/MS analysis
Type: ADME, organism-based
Conditions: in vivo, po
metric: half-life (h)

compound	metric	observed
C=CCn1c(=O)c2cnc(Nc3ccc(N4CCN(C)CC4)cc3)nc2n1-c1cccc(C(C)(C)O)n1 [ADAVOSERTIB]	half-life	1.67
C=CCn1c(=O)c2cnc(Nc3ccc(N4CCN(C)CC4)cc3)nc2n1-c1cccc(-c2ncccn2)n1	half-life	1.74
C=CCn1c(=O)c2cnc(Nc3ccc(N4[C@@H]5CC[C@H]4CN(C)C5)cc3)nc2n1-c1cccc(-c2ncccn2)n1	half-life	2.97
C=CCn1c(=O)c2cnc(Nc3ccc(N4CCN(C)CC4)cc3)nc2n1-c1cccc(-c2cnccn2)n1	half-life	5.94
C=CCn1c(=O)c2cnc(Nc3ccc(N4CCN(C)CC4)cc3)nc2n1-c1cccc(-c2ncc(C)cn2)n1	half-life	3.9
C=CCn1c(=O)c2cnc(Nc3ccc(N4C[C@@H](C)N[C@@H](C)C4)cc3)nc2n1-c1cccc(-c2ncccn2)n1	half-life	5.42
C=CCn1c(=O)c2cnc(Nc3ccc(C4CCN(C)CC4)cc3)nc2n1-c1cccc(-c2ncccn2)n1	half-life	3.55
C=CCn1c(=O)c2cnc(Nc3ccc(N4CCC(N5CCN(C)CC5)CC4)cc3)nc2n1-c1cccc(-c2ncccn2)n1	half-life	3.71

a: C=CCn1c(=O)c2cnc(Nc3ccc(N4CCN(CCO)CC4)cc3)nc2n1-c1cccc(-c2cnccn2)n1
b: C=CCn1c(=O)c2cnc(Nc3ccc(N4CCN(C)CC4)cc3)nc2n1-c1cccc(-c2cccnn2)n1
Asked: When the recorded half-life values are compared, which is smaller: that of a or that of b ? Let me know the label of the one you choose.
Given back: a
(a: 4.68 h, b: 8.65 h)

---

Assay: Clearance in ICR mouse at 1 mg/kg, iv measured upto 24 hrs by LC-MS/MS analysis
Assay type: ADME, organism-based
Conditions: in vivo
metric: clearance (mL/min/kg)

Here is how some compounds turned out for clearance.
C=CCn1c(=O)c2cnc(Nc3ccc(N4[C@@H]5CC[C@H]4CN(C)C5)cc3)nc2n1-c1cccc(-c2ncccn2)n1 128
C=CCn1c(=O)c2cnc(Nc3ccc(N4CCN(CC)CC4)cc3)nc2n1-c1cccc(-c2cnccn2)n1 108
C=CCn1c(=O)c2cnc(Nc3ccc(N4CCN(C)CC4)cc3)nc2n1-c1cccc(-c2ncc(C)cn2)n1 14.2

1: C=CCn1c(=O)c2cnc(Nc3ccc(C4CCN(C)CC4)cc3)nc2n1-c1cccc(-c2ncccn2)n1
2: C=CCn1c(=O)c2cnc(Nc3ccc(N4C[C@@H](C)N[C@@H](C)C4)cc3)nc2n1-c1cccc(-c2cccnn2)n1
Asked: Hey, between 1 and 2 which has a smaller measured clearance? Please respond with the label that marks your chosen entry.
Given back: 1
(1: 69.5 mL/min/kg, 2: 178 mL/min/kg)

---

Experiment: Bioavailability in ICR mouse at 60 mg/kg, IG measured upto 24 hrs by LC-MS/MS analysis
Type: ADME, organism-based
Conditions: in vivo, po
metric: bioavailability (%)

Example results:
C=CCn1c(=O)c2cnc(Nc3ccc(N4CCN(C)CC4)cc3)nc2n1-c1cccc(-c2cnccn2)n1 61.5
C=CCn1c(=O)c2cnc(Nc3ccc(N4CCN(C)CC4)cc3)nc2n1-c1cccc(C(C)(C)O)n1 82.1
C=CCn1c(=O)c2cnc(Nc3ccc(N4[C@@H]5CC[C@H]4CN(C)C5)cc3)nc2n1-c1cccc(-c2ncccn2)n1 91.3

A: C=CCn1c(=O)c2cnc(Nc3ccc(N4CCN(C)CC4)cc3)nc2n1-c1cccc(-c2ncc(C)cn2)n1
B: C=CCn1c(=O)c2cnc(Nc3ccc(C4CCN(C)CC4)cc3)nc2n1-c1cccc(-c2ncccn2)n1
Asked: // select label with min value of measured bioavailability from [ A , B ] Answer with the label corresponding to your selection.
Given back: B

---

Test: AUC (0 to 24 hrs) in ICR mouse at 60 mg/kg, IG measured upto 24 hrs by LC-MS/MS analysis
Format: ADME, organism-based
Details: in vivo, po
metric: AUC(0-t) at 24 h (µg·h/mL)

compound	unit of measurement	AUC(0-t) at 24 h
C=CCn1c(=O)c2cnc(Nc3ccc(N4CCN(CC)CC4)cc3)nc2n1-c1cccc(-c2cnccn2)n1	µg·h/mL	4.2
C=CCn1c(=O)c2cnc(Nc3ccc(N4CCN(C)CC4)cc3)nc2n1-c1cccc(-c2cccnn2)n1	µg·h/mL	4.27
C=CCn1c(=O)c2cnc(Nc3ccc(N4CCN(C)CC4)cc3)nc2n1-c1cccc(-c2ncc(C)cn2)n1	µg·h/mL	58.1
C=CCn1c(=O)c2cnc(Nc3ccc(N4[C@@H]5CC[C@H]4CN(C)C5)cc3)nc2n1-c1cccc(-c2ncccn2)n1	µg·h/mL	6.81

A: C=CCn1c(=O)c2cnc(Nc3ccc(N4CCC(N5CCN(C)CC5)CC4)cc3)nc2n1-c1cccc(-c2cnccn2)n1
B: C=CCn1c(=O)c2cnc(Nc3ccc(C4CCN(C)CC4)cc3)nc2n1-c1cccc(-c2ncccn2)n1
Asked: When their AUC(0-t) at 24 h values are compared, which is larger, A or B ? Mark your answer with the label of the selected entry.
Given back: A
(A: 20.3 µg·h/mL, B: 4.28 µg·h/mL)

1: C=CCn1c(=O)c2cnc(Nc3ccc(N4CCC(N5CCN(C)CC5)CC4)cc3)nc2n1-c1cccc(-c2ncccn2)n1
2: C=CCn1c(=O)c2cnc(Nc3ccc(N4C[C@@H](C)N[C@@H](C)C4)cc3)nc2n1-c1cccc(-c2cccnn2)n1
Asked: Could you determine which record has the numerically smaller AUC(0-t) at 24 h? Candidates: 1 and 2 Let me know the label of the one you choose.
Given back: 2
(2: 0.0208 µg·h/mL, 1: 32.4 µg·h/mL)

---

Molecular target: Wee1-like protein kinase (Homo sapiens, UniProt P30291)
Sequence (P30291 whole entry, the tested form may be a part): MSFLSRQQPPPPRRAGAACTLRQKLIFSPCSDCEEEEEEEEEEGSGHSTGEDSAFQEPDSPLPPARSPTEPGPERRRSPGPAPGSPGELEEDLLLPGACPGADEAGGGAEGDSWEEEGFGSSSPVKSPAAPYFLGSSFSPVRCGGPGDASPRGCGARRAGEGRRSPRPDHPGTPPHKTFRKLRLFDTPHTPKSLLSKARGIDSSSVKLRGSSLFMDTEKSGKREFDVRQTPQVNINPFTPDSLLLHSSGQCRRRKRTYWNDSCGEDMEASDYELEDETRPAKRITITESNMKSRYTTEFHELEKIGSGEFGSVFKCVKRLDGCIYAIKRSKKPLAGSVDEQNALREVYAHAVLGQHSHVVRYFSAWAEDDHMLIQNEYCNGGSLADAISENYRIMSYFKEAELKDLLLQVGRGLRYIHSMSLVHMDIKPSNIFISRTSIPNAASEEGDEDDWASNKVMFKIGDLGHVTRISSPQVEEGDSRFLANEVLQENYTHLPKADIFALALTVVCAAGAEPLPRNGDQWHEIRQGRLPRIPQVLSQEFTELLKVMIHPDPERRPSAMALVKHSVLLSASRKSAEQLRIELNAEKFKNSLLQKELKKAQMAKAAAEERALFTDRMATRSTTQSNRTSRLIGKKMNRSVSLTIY
Test: Inhibition of human Wee1 (215 to 647 residues) using polyornithine/tyrosine (4:1) as substrate incubated for 5 mins in presence of ATP by micro beta plate reader analysis
pIC50: −log10 of the molar value.
metric: pIC50

C=CCn1c(=O)c2cnc(Nc3ccc(N4CCN(C)CC4)cc3)nc2n1-c1cccc(-n2cnc(C)c2)n1 8.42
C=CCn1c(=O)c2cnc(Nc3ccc(N4CCN(C)CC4)cc3)nc2n1-c1cncc(-c2cnccn2)c1 7.87
C=CCn1c(=O)c2cnc(Nc3ccc(N4CCN(C)CC4)cc3)nc2n1-c1cccc(-c2cnn(C)c2)n1 8.59
C=CCn1c(=O)c2cnc(Nc3ccc(N4CCN(C)CC4)cc3)nc2n1-c1cccc(-n2cccn2)n1 8.62
C=CCn1c(=O)c2cnc(Nc3ccc(N4CCN(C)CC4)cc3)nc2n1-c1cccc(-c2cccnn2)n1 8.70
C=CCn1c(=O)c2cnc(Nc3ccc(N4CCN(C)CC4)cc3)nc2n1-c1cccc(-c2cnccn2)n1 8.68

1: C=CCn1c(=O)c2cnc(Nc3ccc(N4CCN(C)CC4)cc3)nc2n1-c1cccc(-c2cnn(C(F)F)c2)n1
2: C=CCCn1c(=O)c2cnc(Nc3ccc(N4CCN(C)CC4)cc3)nc2n1-c1cccc(-c2cnccn2)n1
Asked: Please indicate which item has the smaller measured pIC50: 1 versus 2 Write the label of whichever entry you select.
Given back: 2

---

Experiment: Half life in ICR mouse at 1 mg/kg, iv measured upto 24 hrs by LC-MS/MS analysis
Format: ADME, organism-based
Details: in vivo
metric: half-life (h)

These recorded examples may help you get a feel for the data.
compound	unit of measurement	half-life
C=CCn1c(=O)c2cnc(Nc3ccc(N4[C@@H]5CC[C@H]4CN(C)C5)cc3)nc2n1-c1cccc(-c2ncccn2)n1	h	1.38
C=CCn1c(=O)c2cnc(Nc3ccc(N4CCN(C)CC4)cc3)nc2n1-c1cccc(-c2cnccn2)n1	h	1.06
C=CCn1c(=O)c2cnc(Nc3ccc(N4C[C@@H](C)N[C@@H](C)C4)cc3)nc2n1-c1cccc(-c2cccnn2)n1	h	1.56
C=CCn1c(=O)c2cnc(Nc3ccc(N4CCC(N5CCN(C)CC5)CC4)cc3)nc2n1-c1cccc(-c2ncccn2)n1	h	2.39

a: C=CCn1c(=O)c2cnc(Nc3ccc(N4CCC(N5CCN(C)CC5)CC4)cc3)nc2n1-c1cccc(-c2cnccn2)n1
b: C=CCn1c(=O)c2cnc(Nc3ccc(C4CCN(C)CC4)cc3)nc2n1-c1cccc(-c2ncccn2)n1
Asked: Lab note: record which item had the higher half-life, a or b . Choose, then provide that item's label.
Given back: a
(a: 2.55 h, b: 1.51 h)

---

Test: Half life in ICR mouse at 1 mg/kg, iv measured upto 24 hrs by LC-MS/MS analysis
Type: ADME, organism-based
Details: in vivo
metric: half-life (h)

Example entries begin here.
C=CCn1c(=O)c2cnc(Nc3ccc(N4CCN(C)CC4)cc3)nc2n1-c1cccc(-c2cccnn2)n1 2.45
C=CCn1c(=O)c2cnc(Nc3ccc(N4CCN(CCO)CC4)cc3)nc2n1-c1cccc(-c2cnccn2)n1 1.3
C=CCn1c(=O)c2cnc(Nc3ccc(N4CCN(C)CC4)cc3)nc2n1-c1cccc(-c2ncc(C)cn2)n1 1.65

a: C=CCn1c(=O)c2cnc(Nc3ccc(N4CCN(CC)CC4)cc3)nc2n1-c1cccc(-c2cnccn2)n1
b: C=CCn1c(=O)c2cnc(Nc3ccc(N4C[C@@H](C)N[C@@H](C)C4)cc3)nc2n1-c1cccc(-c2ncccn2)n1
c: C=CCn1c(=O)c2cnc(Nc3ccc(N4CCN(C)CC4)cc3)nc2n1-c1cccc(-c2ncccn2)n1
Asked: Ordering criterion: half-life; begin with the maximum. Sort and list the labels as requested.
Given back: b, c, a
